- test_system: TIE1 (Homo sapiens)
- Construct: purchased Eurofins DiscoverX KINOMEscan (scanTK)
- Sequence (P35590 22-1138): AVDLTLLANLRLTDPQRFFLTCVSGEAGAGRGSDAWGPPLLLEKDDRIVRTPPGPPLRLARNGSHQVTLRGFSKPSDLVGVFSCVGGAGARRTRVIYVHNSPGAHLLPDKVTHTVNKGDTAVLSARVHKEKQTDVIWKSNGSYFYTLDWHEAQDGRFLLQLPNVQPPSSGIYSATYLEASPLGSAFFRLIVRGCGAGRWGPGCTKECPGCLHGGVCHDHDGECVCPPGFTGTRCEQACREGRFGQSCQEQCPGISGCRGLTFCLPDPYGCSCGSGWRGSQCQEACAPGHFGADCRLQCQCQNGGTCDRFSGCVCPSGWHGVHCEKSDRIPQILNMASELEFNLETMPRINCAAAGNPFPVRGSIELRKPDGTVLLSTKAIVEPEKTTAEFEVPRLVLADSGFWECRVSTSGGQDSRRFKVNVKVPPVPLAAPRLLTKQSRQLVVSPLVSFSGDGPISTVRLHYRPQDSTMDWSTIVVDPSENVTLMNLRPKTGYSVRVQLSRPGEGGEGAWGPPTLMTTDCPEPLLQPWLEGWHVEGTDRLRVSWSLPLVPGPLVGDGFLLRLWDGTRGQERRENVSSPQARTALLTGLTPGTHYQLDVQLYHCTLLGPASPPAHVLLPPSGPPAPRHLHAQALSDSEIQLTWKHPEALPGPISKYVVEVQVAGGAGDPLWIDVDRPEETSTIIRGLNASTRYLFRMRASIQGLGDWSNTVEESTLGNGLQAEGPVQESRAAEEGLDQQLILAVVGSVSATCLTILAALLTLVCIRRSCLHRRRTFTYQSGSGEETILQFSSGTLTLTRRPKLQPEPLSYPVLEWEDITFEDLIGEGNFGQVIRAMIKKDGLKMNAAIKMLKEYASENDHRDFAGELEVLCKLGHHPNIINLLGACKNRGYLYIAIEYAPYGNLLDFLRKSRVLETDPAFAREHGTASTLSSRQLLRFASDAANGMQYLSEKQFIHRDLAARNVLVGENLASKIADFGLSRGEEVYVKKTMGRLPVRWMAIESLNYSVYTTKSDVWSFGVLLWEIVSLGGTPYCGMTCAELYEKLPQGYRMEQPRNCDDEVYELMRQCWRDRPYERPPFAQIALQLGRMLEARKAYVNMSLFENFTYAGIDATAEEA
- experiment_summary: KINOMEscan ScanTK
- Type: binding
- measurement_setup: read-out: %Control @1000nM
Simple rule here: remaining binding at 1 µM less than 80% is t, otherwise f.

CCOC(=O)c1cnc(S(C)(=O)=O)nc1N1CCC[C@@H](n2nc(-c3ccc(Oc4ccccc4)cc3)c3c(N)ncnc32)C1: t
Cc1cnc(S(C)(=O)=O)nc1N1CCCC(n2nc(-c3ccc(Oc4ccccc4)cc3)c3c(N)ncnc32)C1 (centres unmarked): f
COC(=O)c1cnc(S(C)(=O)=O)nc1N1CCCC(n2nc(-c3ccc(Oc4ccccc4)cc3)c3c(N)ncnc32)C1 (centres unmarked): t
C=CC(=O)N1CCC[C@@H](n2nc(-c3ccc(Oc4ccccc4)cc3)c3c(N)ncnc32)C1 [Compound 1g, Ibrutinib, reference compound]: t

Now consider a different compound.
Input: Quick check: remaining binding at 1 µM of CNC(=O)c1cnc(S(C)(=O)=O)nc1N1CCCC(n2nc(-c3ccc(Oc4ccccc4)cc3)c3c(N)ncnc32)C1 (centres unmarked) under 80%?
Output: t

----------
- test_system: PDGFRB (Homo sapiens, UniProt P09619)
- Construct: purchased Eurofins DiscoverX KINOMEscan (scanTK)
- Sequence (P09619 33-1106): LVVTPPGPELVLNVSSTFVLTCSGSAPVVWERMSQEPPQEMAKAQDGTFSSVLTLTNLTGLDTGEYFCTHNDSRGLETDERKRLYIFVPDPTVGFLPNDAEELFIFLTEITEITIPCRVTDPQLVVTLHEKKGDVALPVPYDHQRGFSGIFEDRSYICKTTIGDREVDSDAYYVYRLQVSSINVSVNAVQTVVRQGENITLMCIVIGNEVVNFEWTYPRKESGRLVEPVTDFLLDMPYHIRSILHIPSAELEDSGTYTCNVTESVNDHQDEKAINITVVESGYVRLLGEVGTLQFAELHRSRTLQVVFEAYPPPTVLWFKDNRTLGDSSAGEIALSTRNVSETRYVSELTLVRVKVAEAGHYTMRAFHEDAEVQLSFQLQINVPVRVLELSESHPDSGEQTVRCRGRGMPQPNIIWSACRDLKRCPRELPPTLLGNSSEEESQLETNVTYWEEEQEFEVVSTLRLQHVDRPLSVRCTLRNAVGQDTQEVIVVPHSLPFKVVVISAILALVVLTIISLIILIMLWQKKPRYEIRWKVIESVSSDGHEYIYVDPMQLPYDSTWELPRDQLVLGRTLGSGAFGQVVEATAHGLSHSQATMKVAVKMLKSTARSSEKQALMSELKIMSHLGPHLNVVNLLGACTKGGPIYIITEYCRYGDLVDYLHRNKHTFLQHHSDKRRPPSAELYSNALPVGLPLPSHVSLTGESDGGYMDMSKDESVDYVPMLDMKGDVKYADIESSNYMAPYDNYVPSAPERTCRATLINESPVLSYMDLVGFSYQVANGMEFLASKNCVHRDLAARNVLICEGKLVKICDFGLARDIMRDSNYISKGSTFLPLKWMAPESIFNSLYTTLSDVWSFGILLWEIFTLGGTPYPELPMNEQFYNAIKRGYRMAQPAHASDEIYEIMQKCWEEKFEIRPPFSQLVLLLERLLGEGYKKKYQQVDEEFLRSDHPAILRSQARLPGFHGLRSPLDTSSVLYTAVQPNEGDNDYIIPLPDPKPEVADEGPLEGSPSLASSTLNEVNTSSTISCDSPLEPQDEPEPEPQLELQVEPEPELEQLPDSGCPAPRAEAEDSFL
- experiment_summary: KINOMEscan ScanTK
- Format: binding
- measurement_setup: read-out: %Control @1000nM
quantity_name: remaining binding at 1 µM
Dear colleague, please send the value followed by its unit.

Use these answered entries as a reference point.
COC(=O)c1cnc(S(C)(=O)=O)nc1N1CCCC(n2nc(-c3ccc(Oc4ccccc4)cc3)c3c(N)ncnc32)C1 (centres unmarked): 68%
C=CC(=O)N1CCC[C@@H](n2nc(-c3ccc(Oc4ccccc4)cc3)c3c(N)ncnc32)C1 [Compound 1g, Ibrutinib, reference compound]: 25%
CCOC(=O)c1cnc(S(C)(=O)=O)nc1N1CCC[C@@H](n2nc(-c3ccc(Oc4ccccc4)cc3)c3c(N)ncnc32)C1: 87%
CNC(=O)c1cnc(S(C)(=O)=O)nc1N1CCCC(n2nc(-c3ccc(Oc4ccccc4)cc3)c3c(N)ncnc32)C1 (centres unmarked): 77%

Next item in the queue.
Summary for this compound, Cc1cnc(S(C)(=O)=O)nc1N1CCCC(n2nc(-c3ccc(Oc4ccccc4)cc3)c3c(N)ncnc32)C1 (centres unmarked) : remaining binding at 1 µM is 27%

----------
- test_system: ABL1(E255K)-phosphorylated (Homo sapiens, UniProt P00519, E255K)
- Construct: purchased Eurofins DiscoverX KINOMEscan (scanTK)
- Sequence (P00519 whole entry E255K): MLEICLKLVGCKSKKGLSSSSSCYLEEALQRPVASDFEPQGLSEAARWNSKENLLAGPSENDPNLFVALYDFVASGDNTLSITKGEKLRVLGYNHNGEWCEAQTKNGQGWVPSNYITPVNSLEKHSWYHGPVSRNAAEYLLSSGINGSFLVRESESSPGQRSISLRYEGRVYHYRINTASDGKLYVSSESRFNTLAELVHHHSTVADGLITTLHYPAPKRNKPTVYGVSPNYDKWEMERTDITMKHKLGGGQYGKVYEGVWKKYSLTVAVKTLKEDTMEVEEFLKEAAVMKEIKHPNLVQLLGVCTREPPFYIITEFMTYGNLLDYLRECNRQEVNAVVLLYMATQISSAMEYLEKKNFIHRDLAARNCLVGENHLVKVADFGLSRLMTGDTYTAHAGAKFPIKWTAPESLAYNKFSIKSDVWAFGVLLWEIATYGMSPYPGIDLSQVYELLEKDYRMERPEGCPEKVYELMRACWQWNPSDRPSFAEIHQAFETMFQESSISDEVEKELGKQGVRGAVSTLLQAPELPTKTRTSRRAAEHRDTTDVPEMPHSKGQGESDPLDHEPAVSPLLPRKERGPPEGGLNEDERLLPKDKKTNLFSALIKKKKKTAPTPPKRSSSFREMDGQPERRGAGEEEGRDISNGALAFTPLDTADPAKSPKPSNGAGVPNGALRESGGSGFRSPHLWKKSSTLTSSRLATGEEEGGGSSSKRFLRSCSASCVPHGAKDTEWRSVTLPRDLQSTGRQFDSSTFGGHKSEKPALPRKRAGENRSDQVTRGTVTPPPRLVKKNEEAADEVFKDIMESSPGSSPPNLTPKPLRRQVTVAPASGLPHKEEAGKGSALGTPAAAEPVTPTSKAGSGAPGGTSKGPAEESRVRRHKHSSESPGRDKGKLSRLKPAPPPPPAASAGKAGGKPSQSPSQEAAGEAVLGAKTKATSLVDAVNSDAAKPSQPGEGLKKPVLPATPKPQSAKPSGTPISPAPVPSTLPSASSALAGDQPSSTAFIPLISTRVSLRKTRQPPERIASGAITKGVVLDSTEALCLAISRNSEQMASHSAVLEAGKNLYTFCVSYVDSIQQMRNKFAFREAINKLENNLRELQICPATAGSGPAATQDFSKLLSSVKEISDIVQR
- experiment_summary: KINOMEscan ScanTK
- Type: binding
- measurement_setup: @1000nM, read-out: %Control
Measured remaining binding at 1 µM by item
Record the value in %, omitting the unit from your answer.

Use these answered entries as a reference point.
CNC(=O)c1cnc(S(C)(=O)=O)nc1N1CCCC(n2nc(-c3ccc(Oc4ccccc4)cc3)c3c(N)ncnc32)C1 (centres unmarked) [Compound 8d]: 90
CCOC(=O)c1cnc(S(C)(=O)=O)nc1N1CCC[C@@H](n2nc(-c3ccc(Oc4ccccc4)cc3)c3c(N)ncnc32)C1 [Compound 8c]: 81
C=CC(=O)N1CCC[C@@H](n2nc(-c3ccc(Oc4ccccc4)cc3)c3c(N)ncnc32)C1 [Compound 1g, Ibrutinib, reference compound]: 64
Cc1cnc(S(C)(=O)=O)nc1N1CCCC(n2nc(-c3ccc(Oc4ccccc4)cc3)c3c(N)ncnc32)C1 (centres unmarked) [Compound 8a]: 76

Next item in the queue.
Summary for this compound, COC(=O)c1cnc(S(C)(=O)=O)nc1N1CCCC(n2nc(-c3ccc(Oc4ccccc4)cc3)c3c(N)ncnc32)C1 (centres unmarked) [Compound 8b] : remaining binding at 1 µM is 81

Source of measurements: paper PMC11345841
